RUN_DESCRIPTION: Toxicity liver stage against HepG2, at 10uM
Format: cell-based
Design: test concentration 10 uM, cell line HepG2-A16-CD81EGFP
DETAILS: human, HepG2-A16-CD81EGFP cells; read-out: INHIBITION
READOUT_TYPE: cytotoxicity at 10 µM (%)
Respond with the bare value in %.

Item: Cc1ccc(CN(CCCN(C)C)Cc2cnc(N(C)C)nc2)o1 | cytotoxicity at 10 µM: 2.26

* * *

RUN_DESCRIPTION: Toxicity liver stage against HepG2, at 10uM
Format: cell-based
Set-up: test concentration 10 uM, cell line HepG2-A16-CD81EGFP
DETAILS: human, HepG2-A16-CD81EGFP cells; read-out: INHIBITION
READOUT_TYPE: cytotoxicity at 10 µM (%)
Respond with the bare value in %.

Some entries whose results are on file:
COCC(=O)N[C@H]1C[C@@H](Cc2cc(CN3CCOCC3)on2)C1(C)C; 0.66
COC(=O)CCCC(=O)N1CCC(CO)(CCc2ccccc2)CC1; 1.34
COC(=O)CCNC(=O)c1ccc(NC(=O)N(C)CC(C)C)cc1; 9.13
O=C(c1ccco1)N(CC(F)(F)F)C1CCCOC1 (stereo unspecified); -19.5
O=C(Nc1ccccc1OCCc1ccccn1)N1CC[C@@H](O)C1; 4.4

Item: Cc1ccccc1N1CCCN(CC2(O)CCCNC2)CC1 (stereo unspecified) | cytotoxicity at 10 µM: -6.1
